Measured values drawn from the MegaScale stability set (Tsuboyama et al. 2023) for this set.

B1: EEHEE_rd4_0763 (parent)
chain: LTVHVGNVTYHFDNPEQAEEWAKRMAKKYQGQIHVKDGQFRIE

# Variants of: B1
# PROTOCOL_NOTES: folding stability dG (cDNA display proteolysis); higher = more stable
# CONDITION_LABEL: PBS, room temperature
ASSAY_METRIC: folding stability dG (kcal/mol)
Give bare numbers, in kcal/mol.

As a guide, the following entries are already answered.
>>> measured("I33T")
0.877
>>> measured("N7T")
1.67
>>> measured("Q32Y")
1.51
>>> measured("V3K")
0.424

Answer for every listed entry: what is its folding stability dG? The entries follow.
1. G31H
2. L1V
3. L1D

1. 1.46
2. 1.86
3. 0.974
